- system.under.test: Induced myeloid leukemia cell differentiation protein Mcl-1 (Homo sapiens, UniProt Q07820)
- Sequence (Q07820 whole entry): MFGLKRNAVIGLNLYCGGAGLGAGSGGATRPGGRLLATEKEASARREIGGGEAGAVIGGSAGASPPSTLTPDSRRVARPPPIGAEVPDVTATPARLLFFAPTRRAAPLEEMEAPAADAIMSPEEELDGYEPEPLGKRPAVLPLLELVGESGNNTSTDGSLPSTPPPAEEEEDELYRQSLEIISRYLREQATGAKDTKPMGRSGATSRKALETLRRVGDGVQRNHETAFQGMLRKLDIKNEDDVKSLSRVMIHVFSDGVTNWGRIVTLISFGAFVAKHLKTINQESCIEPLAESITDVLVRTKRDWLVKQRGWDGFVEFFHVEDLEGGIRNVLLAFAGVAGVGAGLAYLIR
- protocol: Binding affinity to N-terminus 8X His-tagged human Mcl1 expressed in Escherichia coli BL21 (DE3) cells after 2 hrs by fluorescence polarization assay
pIC50: −log10 of the molar value.
pIC50 for assorted compounds

structure_as_smiles=CN(C)CC[C@H](CSc1ccccc1)Nc1ccc(S(=O)(=O)Nc2ccc(NCCNc3cccc(-c4c(-c5ccc(Cl)cc5)cn(CC[C@H](O)CO)c4C(=O)NCCCN4CCN(C)CC4)c3)cc2)cc1[N+](=O)[O-] readout_label=pIC50 measurement="< 5.00"
structure_as_smiles=CN(C)CC[C@H](CSc1ccccc1)Nc1ccc(S(=O)(=O)NC(=O)c2ccc(N3CCN(c4cccc(-c5c(-c6ccc(Cl)cc6)cn(CC[C@H](O)CO)c5C(=O)NCCCN5CCN(C)CC5)c4)CC3)cc2)cc1[N+](=O)[O-] readout_label=pIC50 measurement="< 5.00"
structure_as_smiles=CCc1c(-c2ccc(Cl)cc2)c(-c2cccc(N3CCN(c4ccc(NS(=O)(=O)c5ccc(N[C@H](CCN(C)C)CSc6ccccc6)c([N+](=O)[O-])c5)cc4)CC3)c2)c(C(=O)O)n1C readout_label=pIC50 measurement="< 5.70"
structure_as_smiles=CN(C)CC[C@H](CSc1ccccc1)Nc1ccc(S(=O)(=O)Nc2ccc(N3CCN(c4cccc(-c5c(-c6ccc(Cl)cc6)cn(C)c5C(=O)NCCCN5CCN(C)CC5)c4)CC3)cc2)cc1[N+](=O)[O-] readout_label=pIC50 measurement="< 5.00"
structure_as_smiles=CN(C)CC[C@H](CSc1ccccc1)Nc1ccc(S(=O)(=O)Nc2ccc(N3CCN(c4cccc(-c5cn(C)cc5-c5ccc(Cl)cc5)c4)CC3)cc2)cc1[N+](=O)[O-] readout_label=pIC50 measurement="< 5.70"

### Prompt So what's the measured pIC50 for this one? CCOC(=O)c1c(-c2cccc(N3CCN(c4ccc(NS(=O)(=O)c5ccc(N[C@H](CCN(C)C)CSc6ccccc6)c([N+](=O)[O-])c5)cc4)CC3)c2)c(-c2ccc(Cl)cc2)cn1C
### Response < 5.70

### Prompt Given the entry CN(C)CC[C@H](CSc1ccccc1)Nc1ccc(S(=O)(=O)Nc2ccc(N3CCN(c4cccc(-c5c(-c6ccc(Cl)cc6)cn(CC[C@H](O)CO)c5C(=O)NCCCN5CCN(C)CC5)c4)CC3)cc2)cc1[N+](=O)[O-] , report its measured pIC50.
### Response < 5.00
